Cited source for all entries: paper PMC11062922

- MEASURED TARGET: CK2alpha1 (CSNK2A1) (Homo sapiens)
- Construct: purchased ProQinase
- Sequence (P68400 whole entry): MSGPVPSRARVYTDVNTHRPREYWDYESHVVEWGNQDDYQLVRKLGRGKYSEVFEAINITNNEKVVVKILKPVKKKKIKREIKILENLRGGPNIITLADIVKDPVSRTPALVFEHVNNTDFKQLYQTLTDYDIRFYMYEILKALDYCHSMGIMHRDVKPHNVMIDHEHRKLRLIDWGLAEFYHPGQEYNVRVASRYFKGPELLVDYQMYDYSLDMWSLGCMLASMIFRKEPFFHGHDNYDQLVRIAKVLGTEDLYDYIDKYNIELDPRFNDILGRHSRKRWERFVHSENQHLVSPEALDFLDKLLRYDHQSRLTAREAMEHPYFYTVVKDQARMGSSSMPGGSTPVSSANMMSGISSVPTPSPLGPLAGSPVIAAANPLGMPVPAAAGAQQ
- RUN DESCRIPTION: Recombinant kinase activity assay (ProQinase, FlashPlate radiometric): CK2alpha1
- Format: biochemical
- EXPERIMENTAL SETUP: recombinant kinase activity assay at KM (ATP); read-out: Activity IC50 CSNK2A1
ENDPOINT LABEL: IC50

Lookup: Provide IC50, recorded with CK2alpha1 (CSNK2A1) (Homo sapiens), of COc1cc(Nc2ncc3c(C)nc(-c4cc5ccccc5[nH]4)n3n2)cc(OC)c1OC [GW869516X]
Found: 85 nM

====

- MEASURED TARGET: endogenous kinases and other proteins enriched by Kinobeads from mixed cancer cell lysates (Homo sapiens)
- Construct: endogenous in cells
- Sequence (O60285 1-661): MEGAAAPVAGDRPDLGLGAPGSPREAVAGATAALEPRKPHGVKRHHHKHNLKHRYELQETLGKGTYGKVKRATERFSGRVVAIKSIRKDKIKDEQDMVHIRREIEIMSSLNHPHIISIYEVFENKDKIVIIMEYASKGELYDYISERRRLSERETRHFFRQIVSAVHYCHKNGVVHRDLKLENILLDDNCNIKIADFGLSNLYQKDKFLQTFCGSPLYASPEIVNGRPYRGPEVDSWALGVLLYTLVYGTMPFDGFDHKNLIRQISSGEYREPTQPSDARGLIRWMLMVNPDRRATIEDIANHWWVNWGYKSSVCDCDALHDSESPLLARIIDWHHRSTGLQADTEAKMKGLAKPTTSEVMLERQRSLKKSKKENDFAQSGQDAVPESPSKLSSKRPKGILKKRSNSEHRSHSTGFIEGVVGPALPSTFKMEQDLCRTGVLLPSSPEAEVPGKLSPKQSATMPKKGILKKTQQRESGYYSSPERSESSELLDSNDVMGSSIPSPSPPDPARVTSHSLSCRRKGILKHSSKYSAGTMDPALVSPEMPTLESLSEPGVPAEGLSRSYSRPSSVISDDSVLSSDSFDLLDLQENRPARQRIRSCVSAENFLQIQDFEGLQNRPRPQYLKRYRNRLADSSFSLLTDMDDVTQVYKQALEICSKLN
- RUN DESCRIPTION: Kinobeads pulldown, full dose-response (eight doses);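 also: competition with Kinobeads ε after inhibitor preincubation in lysate (5 mg/ml protein) for 45 min at 4 °C, DMSO control, doses 0.3–1,000 nM, label-free LC–MS/MS quantification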
- EXPERIMENTAL SETUP: target NUAK1; read-out: apparent Kd
ENDPOINT LABEL: Kd
Number first, unit second: that is the form wanted.

Lookup: Tell us which Kd value is on record for Cn1cc(-c2nc(N[C@@H]3CCCC[C@@H]3N)c(F)c3c2C(=O)NC3)cn1 [TAK659]
Found: 312 nM
